Target: BCL-XL (Homo sapiens)
Sequence (chain, as listed by the source): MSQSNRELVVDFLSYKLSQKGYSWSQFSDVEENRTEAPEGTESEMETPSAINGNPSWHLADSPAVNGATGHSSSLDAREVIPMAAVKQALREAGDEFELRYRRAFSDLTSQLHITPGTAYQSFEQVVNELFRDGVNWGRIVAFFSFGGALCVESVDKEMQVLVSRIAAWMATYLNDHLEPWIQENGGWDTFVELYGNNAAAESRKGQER
Test: BLI
readout name: Kd (µM)
Numeric answer only, unit µM assumed.

Known Kd results, listed for orientation:
binder: αBAX2 (designed binder, biotinylated for BLI (Avi tag). Limits not given; the soluble form lacking the transmembrane segment (210-226) is taken by convention. Any loop deletion is not stated) GADPKKVLDKARDQAENRVRELRQKLTELYKEARKLDLTQEERRKLIKRYKAAMNEAIKDIHEAIEQAKEEADKLKDAGLVNEQQLKELKQRLNEKALAAAFRASGDTWHARRKLQYG
Kd, µM: 1.09
--
binder: αBAK2 (designed binder, biotinylated for BLI (Avi tag). Limits not given; the soluble form lacking the transmembrane segment (210-226) is taken by convention. Any loop deletion is not stated) GADPKKVLDKADDQMENVVVTLKQELEELAKERRKLDLTQSEKIELKLRYIVAHLAAIGDIEEAIREAKEEADKLKKAGLVNSQQFAEFKRRLEELHKEADRKRRDYAEEFRNKLEYG
Kd, µM: 5.7
--
binder: αBAK1 (designed binder, biotinylated for BLI (Avi tag). Limits not given; the soluble form lacking the transmembrane segment (210-226) is taken by convention. Any loop deletion is not stated) GADPKKVLDKAKDQMENVVRKLKQILEELAKEARKLDLTQDEKIELILRYIVAHLAAIGDIEEAIREAKEEADKLKKAGLVNSQQLDEFKRRLEELHKEADRKRRDYAEEFRNKLEYG
Kd, µM: 100

Now for the binder whose Kd we want.
### Prompt Please give the measured Kd for this binder: BAX-CDP01 (BAX-targeting computationally designed protein 01) (designed binder, biotinylated for BLI (Avi tag). Limits not given; the soluble form lacking the transmembrane segment (210-226) is taken by convention. Any loop deletion is not stated) GADPKKVLDKARDQAENRVRELAQKLEELYKEARKLDLTQEERRKLEKRYKAAMEEAIKDIREAIRQAKQEADKLKKAGLVNSQQLKELKQRLNELAIAAALRAIGDAIEFRRKLQYG
### Response 0.038
